Taken from a melting point compilation (Tetko et al.; mined from patent text by program, amines drawn as free bases though some values may be those of a salt).

property_measured: melting point

CC(C)(C)OC(=O)Nc1cc(N2CCOCC2)c(I)cc1N    139 to 143 °C

stdin: Returns the measured melting point for the input compound. Input: Cc1oc(-c2cccc(-c3nc(CCO)c(C)o3)c2)nc1CCO
stdout: 134 to 135 °C

stdin: Returns the measured melting point for the input compound. Input: CCCCSC(=NC(C)=O)Nc1c(Cl)cccc1Cl
stdout: 84 to 89 °C

stdin: Returns the measured melting point for the input compound. Input: CC1CCN(c2c(-c3c(F)cc(F)cc3F)c(Cl)nc3nc(S(C)(=O)=O)nn23)CC1
stdout: 206 °C

stdin: Returns the measured melting point for the input compound. Input: Nc1ccc2[nH]c3cc(-c4ccccc4Cl)c4c(c3c2c1)C(=O)NC4=O
stdout: 216 to 222 °C

stdin: Returns the measured melting point for the input compound. Input: Cc1cc(Cl)nc(NC(=O)NS(=O)(=O)c2ccccc2OC(F)F)n1
stdout: 190 to 191 °C

stdin: Returns the measured melting point for the input compound. Input: COc1ccc(-c2cc(-c3ccccc3)[nH]c2C(=O)Nc2ccc(C(=O)NO)o2)cc1
stdout: 160 to 162 °C

stdin: Returns the measured melting point for the input compound. Input: Cc1ccccc1C=C1CCc2c1oc1ccc(C(=O)O)cc1c2=O
stdout: > 300 °C

stdin: Returns the measured melting point for the input compound. Input: CCSc1cn(C)cc(-c2cccc(C(F)(F)F)c2)c1=O
stdout: 84 to 85 °C
